Target: Dihydroorotate dehydrogenase (Plasmodium falciparum)
Sequence (Q54A96 whole entry): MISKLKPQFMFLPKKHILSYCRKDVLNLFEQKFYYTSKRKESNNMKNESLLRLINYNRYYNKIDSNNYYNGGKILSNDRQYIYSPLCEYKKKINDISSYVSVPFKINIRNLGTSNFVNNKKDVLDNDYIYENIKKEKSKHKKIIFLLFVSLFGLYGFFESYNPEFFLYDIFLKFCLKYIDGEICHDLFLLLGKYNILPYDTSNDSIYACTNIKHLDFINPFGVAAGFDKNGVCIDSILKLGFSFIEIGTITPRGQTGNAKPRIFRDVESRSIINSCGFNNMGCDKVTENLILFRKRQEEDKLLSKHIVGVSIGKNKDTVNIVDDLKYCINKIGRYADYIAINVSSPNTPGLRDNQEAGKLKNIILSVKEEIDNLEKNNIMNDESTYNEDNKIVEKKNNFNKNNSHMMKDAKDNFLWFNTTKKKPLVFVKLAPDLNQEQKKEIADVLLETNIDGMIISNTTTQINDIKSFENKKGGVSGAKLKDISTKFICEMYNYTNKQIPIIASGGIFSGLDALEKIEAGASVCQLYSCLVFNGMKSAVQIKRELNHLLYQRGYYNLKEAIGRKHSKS
Test: Inhibition of recombinant Plasmodium falciparum DHODH
pIC50: −log10 of the molar value.
measurementType: pIC50

[
  {
    "smilesText": "CCOC(=O)C(=CNc1ccccc1C)C(=O)OCC",
    "testResult": 3.46
  },
  {
    "smilesText": "Cc1c(C(=O)Nc2cc(Cl)cc(Cl)c2)cccc1[N+](=O)[O-]",
    "testResult": 6.64
  },
  {
    "smilesText": "Cc1cc(Br)ccc1NC(=O)c1ccc2ccccc2c1",
    "testResult": 6.74
  },
  {
    "smilesText": "CCOC(=O)C(=CNc1ccc2[nH]ncc2c1)C(=O)OCC",
    "testResult": 4.56
  }
]

A = CCOC(=O)C(=CNc1ccc(C)cc1)C(=O)OCC
B = CCOC(=O)/C(C#N)=C\Nc1ccc2c(c1)c1ccccc1n2CC
C = CCOC(=O)C(=CNc1ccc2sc3ccccc3c2c1)C(=O)OCC
D = CCOC(=O)C(=CNc1ccc2[nH]cnc2c1)C(=O)OCC
E = CCOC(=O)C(=CNc1cccc(-c2ccccc2)c1)C(=O)OCC
Please rank these compounds by pIC50 in descending order. Arrange the labels as the request states and list them.
C, B, A, E, D
(C: 6.80, B: 6.36, A: 4.40, E: 4.06, D: 3.46)

---

Experiment: Selectivity for Plasmodium falciparum recombinant DHODH over human recombinant DHODH
measurementType: Selectivity ratio

[
  {
    "smilesText": "CCOC(=O)C(=CNc1ccccc1C)C(=O)OCC",
    "Selectivity ratio": 1
  },
  {
    "smilesText": "CCOC(=O)C(=CNc1ccc2[nH]ncc2c1)C(=O)OCC",
    "Selectivity ratio": 5
  },
  {
    "smilesText": "CCOC(=O)/C(C#N)=C\\Nc1cccc(-c2ccccc2)c1",
    "Selectivity ratio": 10
  },
  {
    "smilesText": "CCOC(=O)C(=CNc1ccc2sc3ccccc3c2c1)C(=O)OCC",
    "Selectivity ratio": 182
  }
]

1 = CCOC(=O)/C(C#N)=C\Nc1ccc2c(c1)c1ccccc1n2CC
2 = CCOC(=O)C(=CNc1cccc(-c2ccccc2)c1)C(=O)OCC
Kindly identify the item with the lower Selectivity ratio figure among these two: 1 and 2 Returns: label corresponding to the selected item.
2
(2: 1, 1: 1210)

---

Some molecules, each annotated with its measured Selectivity ratio.
Test: Selectivity for Plasmodium falciparum recombinant DHODH over human recombinant DHODH
Output spec: single numeric token, no unit.

[
  {
    "smilesText": "Cc1cc(Br)ccc1NC(=O)c1ccc2ccccc2c1",
    "testResult": 2310
  },
  {
    "smilesText": "CCOC(=O)C(=CNc1ccc(C)cc1)C(=O)OCC",
    "testResult": 4
  }
]

Read the next record carefully.
Item under review: "Cc1c(C(=O)Nc2cc(Cl)cc(Cl)c2)cccc1[N+](=O)[O-]" . Reported Selectivity ratio?
2280
